// data source = PubChem BioAssay (EPA / NIEHS)

Assay: ATG_Ets_CIS: Attagene CIS-FACTORIAL HepG2 Assay for human Erythroblast Transformation Specific (ETS) (AID 2282941)
Conditions: HepG2 ETS cis-reporter transcription, actives raise or lower the signal
The source made the active and inactive calls. How the source made its calls: active means hit-call score of the fitted dose curve at least 0.9, where 1 is the maximum; inactive means score below 0.9.
Pick one and only one: 1 = active, 0 = inactive

Worked set:
Compound | Category
Clc1ccc(COC(Cn2ccnc2)c2ccc(Cl)cc2Cl)cc1 (configuration not stated) | 0
BrCCBr | 0
CCOP(=S)(OCC)Oc1ccc(S(C)=O)cc1 (configuration not stated) | 0
O=c1[nH]c(=O)[nH]c(=O)[nH]1 | 0

Lookup: Please state the recorded outcome for this compound: ClCC(Cl)CCl
Found: 0

Lookup: What do we get for Nc1ccc(N=Nc2ccc(-c3ccc(N=Nc4c(S(=O)(=O)O)cc5cc(S(=O)(=O)O)c(N=Nc6ccccc6)c(O)c5c4N)cc3)cc2)c(N)c1 ?
Found: 0

Lookup: What do we get for C=CC#N ?
Found: 0

Lookup: What do we get for CCC(=O)C(CC(C)N(C)C)(c1ccccc1)c1ccccc1 (configuration not stated) ?
Found: 0

Lookup: What do we get for ClC1(Cl)C2(Cl)C3(Cl)C4(Cl)C(Cl)(Cl)C5(Cl)C3(Cl)C1(Cl)C5(Cl)C24Cl (configuration not stated) ?
Found: 0

Lookup: What do we get for CC(C)(c1ccccc1)c1ccc(O)c(C(C)(C)c2ccccc2)c1 ?
Found: 0

Lookup: What do we get for O=C(O)Cc1ccccc1 ?
Found: 0

Lookup: What do we get for CC(C)c1cccc(C(C)C)c1O ?
Found: 0

Lookup: What do we get for CC(C#N)CCC#N (configuration not stated) ?
Found: 0

Lookup: What do we get for CCC[CH2][Sn]([Cl])([Cl])[Cl] ?
Found: 0

Lookup: What do we get for CC(C)(C)CC(C)(C)c1ccc(O)cc1 ?
Found: 0

Lookup: What do we get for Cc1ccccc1N ?
Found: 0

Lookup: What do we get for ClCc1cccnc1 ?
Found: 1

Lookup: What do we get for CCN1CCC2(CC1)COc1cc3c(cc12)N(C(=O)c1ccc(-c2ccc(-c4nnc(C)o4)cc2C)cc1)CC3 ?
Found: 0

Lookup: What do we get for Nc1ccc(-c2ccc(N)c(Cl)c2)cc1Cl ?
Found: 0

Lookup: What do we get for [O-][Cl+2]([O-])O ?
Found: 0

Lookup: What do we get for CC12CC1(C)C(=O)N(c1cc(Cl)cc(Cl)c1)C2=O (configuration not stated) ?
Found: 0

Lookup: What do we get for COc1cc(OC)nc(NC(=O)NS(=O)(=O)c2ncccc2C(=O)N(C)C)n1 ?
Found: 0

Lookup: What do we get for ClC1=C(Cl)[C@]2(Cl)[C@@H]3[C@@H](Cl)[C@@H](Cl)C[C@@H]3[C@@]1(Cl)C2(Cl)Cl ?
Found: 0

Lookup: What do we get for Oc1cccc2cccnc12 ?
Found: 0

---

Read-out: Apolipoprotein A-V (APOA5) gene, APOA5 (gene 116519)
Test: LTEA_HepaRG_APOA5: Life Technologies and Expression Analysis (LTEA) Assay for Apolipoprotein A-V (APOA5) gene using HepaRG (AID 2283474)
Settings: mRNA level, 48 h; actives raise or lower the signal
Active and inactive are the calls of the source. How the source made its calls: active means hit-call score of the fitted dose curve at least 0.9, where 1 is the maximum; inactive means score below 0.9.
Pick one and only one: Yes = active, No = inactive

Worked set:
Molecule | Category
CCC(C)(C)c1ccc(O)c(C(C)(C)CC)c1 | No
NC(=O)O | No
CCN1CCC2(CC1)COc1cc3c(cc12)N(C(=O)c1ccc(-c2ccc(-c4nnc(C)o4)cc2C)cc1)CC3 | Yes
ClC1(Cl)C2(Cl)C3(Cl)C4(Cl)C(Cl)(Cl)C5(Cl)C3(Cl)C1(Cl)C5(Cl)C24Cl (configuration not stated) | No
O=C(Nc1ccc2[nH]ccc2c1)c1cc2cc(F)ccc2n1Cc1cccc(F)c1 | Yes
C=C(C)C(=O)[O][Sn]([CH2]CCC)([CH2]CCC)[CH2]CCC | Yes
C=CC(=O)OCCCCCC(C)C | Yes
Oc1cccc2cccnc12 | No
CN(C)N=O | No
CC(C)(c1ccccc1)c1ccc(O)c(C(C)(C)c2ccccc2)c1 | Yes

Lookup: Please state the recorded outcome for this molecule: CCOP(=S)(OCC)SCSP(=S)(OCC)OCC
Found: No

Lookup: What do we get for O=c1[nH]c(=O)[nH]c(=O)[nH]1 ?
Found: No
